Where these numbers come from: patent US20230372301A1

experiment: Pharmacokinetics of single oral doses of nirogacestat dihydrobromide; format: in vivo, human; conditions: human, in vivo, po, 50 mg, COHORT 3: 50 mg, Period 1, read-out: AUClast, Geometric Mean
Counter-ions that a name gives are not always drawn.
property: AUC(0-t) (ng·h/mL)
# output: bare number, implied unit ng·h/mL

Query block: Fill in the blank: the reported AUC(0-t) of CCC[C@H](N[C@H]1CCc2cc(F)cc(F)c2C1)C(=O)Nc1cn(C(C)(C)CNCC(C)(C)C)cn1 [nirogacestat dihydrobromide] is ____.
Result block: 545

---

test: Pharmacokinetics of single oral doses of nirogacestat dihydrobromide; format: in vivo, human; conditions: human, in vivo, po, 150 mg, COHORT 1: 150 mg (3 × 50 mg), Period 1, read-out: Cmax, Geometric Mean
Structures can show the parent of a compound that is named as a salt.
property: Cmax
Write down the value, and be sure its unit follows.

Query block: Fill in the blank: the reported Cmax of CCC[C@H](N[C@H]1CCc2cc(F)cc(F)c2C1)C(=O)Nc1cn(C(C)(C)CNCC(C)(C)C)cn1 [nirogacestat dihydrobromide] is ____.
Result block: 733 ng/mL
